target: 5HT3 receptor (Mus musculus, UniProt P23979); construct: Cells were homogenized in tris.HCl buffer; endogenous in cells; host or cells: NxG 108CC15 (NG108-15) cell membranes; assay: In vitro 5HT3 receptor binding with [3H]GR 65630
Sequence (P23979 24-489): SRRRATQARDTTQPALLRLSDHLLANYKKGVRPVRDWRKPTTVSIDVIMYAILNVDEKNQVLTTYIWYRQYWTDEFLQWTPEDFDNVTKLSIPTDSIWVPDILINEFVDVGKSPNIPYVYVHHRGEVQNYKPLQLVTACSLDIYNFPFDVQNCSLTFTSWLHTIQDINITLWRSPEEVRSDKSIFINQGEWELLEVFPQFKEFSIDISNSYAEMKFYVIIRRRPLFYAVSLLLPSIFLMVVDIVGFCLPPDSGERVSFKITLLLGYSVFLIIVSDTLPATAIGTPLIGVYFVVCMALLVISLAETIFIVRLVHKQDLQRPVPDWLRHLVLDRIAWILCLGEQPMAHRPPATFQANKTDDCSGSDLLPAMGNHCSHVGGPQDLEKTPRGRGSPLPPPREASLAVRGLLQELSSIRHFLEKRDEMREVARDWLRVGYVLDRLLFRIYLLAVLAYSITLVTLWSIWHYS
pKi: −log10 of the molar value.
RECORDED_ENDPOINT: pKi

1. CC(C)n1c(=O)n(C(=O)N[C@H]2C[C@H]3CC[C@@H](C2)N3C)c2ccccc21 = 9.54
2. Cn1cc(C(=O)[C@@H]2CCc3nc[nH]c3C2)c2ccccc21 [(−)-YM-060] = 9.85
3. COc1cc(N)c(Cl)cc1C(=O)NC1CCN2CCCC1C2 (racemic) [(±)-Renzapride] = 8.00
4. CCn1c(=O)n(C(=O)OC2C[C@H]3CC[C@@H](C2)N3C)c2ccccc21 (some centres unmarked) = 8.18
5. CN1[C@@H]2CC[C@H]1C[C@@H](OC(=O)c1cc(Cl)cc(Cl)c1)C2 = 8.10
